Experiment: Pharmacokinetics in mice
Type: in vivo, male ICR (CD-1) mice
Details: male, ICR (CD-1), mouse, plasma, po, 10 mg/kg
ENDPOINT_NAME: half-life (h)
Give the value, in units of h, as a plain number.

input: # get_value(readout='half-life', item= Cc1ccc(C(=O)NCc2ccsc2)cc1C#Cc1cn(C(C)C)c2ncnc(N)c12 )
output: 2.29

input: # get_value(readout='half-life', item= COCCn1cc(C#Cc2cc(C(=O)NCc3ccsc3)ccc2C)c2c(N)ncnc21 )
output: 1.34

----------
Assay: Pharmacokinetics in mice
Type: in vivo, male ICR (CD-1) mice
Details: male, ICR (CD-1), mouse, plasma, oral, 10 mpk
ENDPOINT_NAME: bioavailability (%)
Give the value, in units of %, as a plain number.

input: # get_value(readout='bioavailability', item= Cc1ccc(C(=O)NCc2ccsc2)cc1C#Cc1cn(C(C)C)c2ncnc(N)c12 )
output: 29.9

----------
Test: Pharmacokinetics in mice
Format: in vivo, male ICR (CD-1) mice
Conditions: male, ICR (CD-1), mouse, plasma, po, 10 mg/kg
ENDPOINT_NAME: AUC(0-t) (ng·h/mL)
Give the value, in units of ng·h/mL, as a plain number.

input: # get_value(readout='AUC(0-t)', item= Cc1ccc(C(=O)NCc2ccsc2)cc1C#Cc1cn(C(C)C)c2ncnc(N)c12 )
output: 1280

input: # get_value(readout='AUC(0-t)', item= COCCn1cc(C#Cc2cc(C(=O)NCc3ccsc3)ccc2C)c2c(N)ncnc21 )
output: 233
